Each entry below carries its recorded pEC50.
# Test system: CEM cells HIV-1 protection, formazan growth assay
# Assay Info: NCI AIDS Antiviral Assay
pEC50: −log10 of the molar value.

For orientation, consider the following solved cases.
Compound	pEC50
Cc1ccc(S(=O)(=O)N/N=C(/c2ccccc2)c2ccsc2C)cc1	< 3.70
CCOC(=O)c1c(N)sc2c1C(C)(C(=O)OCC)CC2 (stereo unspecified)	< 3.70
CCC(=O)/C=C/c1ccccc1	< 3.70
COc1ccc(OC)c(NC(=O)Nc2nccs2)c1	< 3.70
OCC(O)C(O)C(O)c1nn(-c2ccccc2)c2nc3ccc(Cl)cc3nc12 (stereo unspecified)	< 3.95

Query :: Tell me pEC50 reported for `S=C1Cc2cc3ccccc3nc2-c2ccccc2N1`
Result :: < 4.00

Query :: Please look at this compound and report its pEC50: `Cc1cc(/C=C/c2cc[n+](C)c3ccccc23)c(O)c2ncccc12`
Result :: < 3.40
